Test: Viscosity of aqueous contrast media solution
Type: physicochemical
Conditions: 300 mg I/ml
measured quantity: Viscosity 37° C. (cp)
One number for each entry, in cp.

[
  {
    "compound": "O=C(NC(CO)CO)c1c(I)c(C(=O)NC(CO)CO)c(I)c(N(CCO)C(=O)CC(=O)N(CCO)c2c(I)c(C(=O)NC(CO)CO)c(I)c(C(=O)NC(CO)CO)c2I)c1I",
    "endpoint unit": "cp",
    "Viscosity 37° C.": 6.8
  },
  {
    "compound": "CC(=O)Nc1c(I)c(C(=O)N[C@H]2C(O)O[C@H](CO)[C@@H](O)[C@@H]2O)c(I)c(N(C)C(C)=O)c1I (stereo partly shown) [Metrizamide]",
    "endpoint unit": "cp",
    "Viscosity 37° C.": 6.2
  },
  {
    "compound": "C[C@H](O)C(=O)Nc1c(I)c(C(=O)NC(CO)CO)c(I)c(C(=O)NC(CO)CO)c1I",
    "endpoint unit": "cp",
    "Viscosity 37° C.": 4.7
  }
]

Now, please, on to the next compound.
Viscosity 37° C. lookup needed for CN(CC(O)CO)C(=O)c1c(I)c(NC(=O)C(=O)Nc2c(I)c(C(=O)N(C)CC(O)CO)c(I)c(C(=O)N(C)CC(O)CO)c2I)c(I)c(C(=O)N(C)CC(O)CO)c1I (stereo not shown) , thanks.
13.7
